SYSTEM_UNDER_TEST: T1, human 5T4-His protein (human, UniProt Q13641 32-355)
T1 construct: also called recombinant 5T4 protein (human 5T4-his tag); human 5T4 protein; not shown: His tag
T1 sequence (looked up): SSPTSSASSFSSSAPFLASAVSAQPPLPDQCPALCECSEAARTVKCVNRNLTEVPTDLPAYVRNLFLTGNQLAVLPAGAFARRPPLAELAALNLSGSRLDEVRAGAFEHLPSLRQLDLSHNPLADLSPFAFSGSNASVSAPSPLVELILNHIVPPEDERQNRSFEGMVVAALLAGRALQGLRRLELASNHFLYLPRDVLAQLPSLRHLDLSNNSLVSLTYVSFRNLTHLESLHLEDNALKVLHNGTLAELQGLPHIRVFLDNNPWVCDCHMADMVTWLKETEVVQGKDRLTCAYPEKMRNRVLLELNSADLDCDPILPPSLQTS
ASSAY_COMMENT: ELISA, coated 5T4-His
READOUT_NAME: EC50 (µg/mL)
Give the value in µg/mL but do not write µg/mL after it.

| BINDER | MEASURED_RESULT |
| --- | --- |
| Hu14G12-4 (antibody, V domains shown, humanized) VH: EVQLVQSGAEVKKPGATVKISCKVSGYAFSSSWMNWVQQAPGKGLEWMGRIYREDGHTNYNGKFKGRVTITADTSTDTAYMELSSLRSEDTAVYYCATGGAMDYWGQGTLVTVSS VL: DIQMTQSPSSLSASVGDRVTISCRASQDISNYLNWYQQKPGKTVKLLIYYTSRLHSGVPSRFSGSGSGTDYTFTISSLQPEDIATYFCQQDNTLPWTFGGGTKLEIK | 0.019 |
| Hu14G12-14 (antibody, V domains shown, humanized) VH: EVQLVQSGAEVKKPGATVKISCKASGYAFSSSWMNWVKQAPGKGLEWIGRIYREDGHTNYNGKFKGRATITADTSTTTAYMELSSLRSEDSAVYFCANGGAMDYWGQGTLVTVSS VL: DIQMTQSPSSLSASVGDRVTITCRASQDISNYLNWYQQKPGKAPKLLIYYTSRLHSGVPSRFSGSGSGTDYTFTISSLQPEDIATYFCQQDNTLPWTFGGGTKLEIK | 0.014 |
| Hu14G12-19 (antibody, V domains shown, humanized) VH: QVQLVQSGAEVKKPGSSVKVSCKASGGTFSSSWMNWVKQAPGQGLEWIGRIYREDGHTNYNGKFKGRATLTADKSTSTAYMELSSLRSEDTAVYFCANGGAMDYWGQGTTVTVSS VL: DIQMTQSPSSLSASVGDRVTITCRASQDISNYLNWYQQKPGKVPKLLIYYTSRLHSGVPSRFSGSGSGTDFTLTISSLQPEDVATYYCQQDNTLPWTFGGGTKLEIK | 0.4 |
| Hu14G12-29 (antibody, V domains shown, humanized) VH: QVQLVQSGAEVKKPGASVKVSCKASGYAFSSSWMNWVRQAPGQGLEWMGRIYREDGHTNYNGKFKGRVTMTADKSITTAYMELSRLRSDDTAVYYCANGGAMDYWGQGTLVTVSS VL: DIQMTQSPSSLSASVGDRVTITCRASQDISNYLNWYQQKPGKAPKLLIYYTSRLHSGVPSRFSGSGSGTDYTLTISSLQPEDIATYFCQQDNTLPWTFGGGTKVEIK | 0.0067 |
| Hu14G12-7 (antibody, V domains shown, humanized) VH: EVQLVQSGAEVKKPGATVKISCKVSGYAFSSSWMNWVQQAPGKGLEWIGRIYREDGHTNYNGKFKGRVTITADTSTDTAYMELSSLRSEDTAVYFCANGGAMDYWGQGTLVTVSS VL: DIQMTQSPSSLSASVGDRVTISCRASQDISNYLNWYQQKPGKAVKLLIYYTSRLHSGVPSRFSGSGSGTDFTFTISSLQPEDIATYFCQQDNTLPWTFGGGTKLEIK | 0.015 |

[ask] Endpoint output: EC50 of Hu14G12-35 (antibody, V domains shown, humanized) VH: QVQLVQSGAEVKKPGASVKVSCKASGYAFSSSWMNWVRQAPGQGLEWMGRIYREDGHTNYNGKFKGRVTMTADKSTTTAYMELSSLRSEDTAVYYCANGGAMDYWGQGTLVTVSS VL: EIVMTQSPATLSLSPGERATLSCRASQDISNYLNWYQQKPGQAPRLLIYYTSRLHSGIPARFSGSGSGTDYTLTISSLEPEDIAVYFCQQDNTLPWTFGGGTKVEIK . Value?
[reply] 0.013

[ask] Endpoint output: EC50 of Hu14G12-5 (antibody, V domains shown, humanized) VH: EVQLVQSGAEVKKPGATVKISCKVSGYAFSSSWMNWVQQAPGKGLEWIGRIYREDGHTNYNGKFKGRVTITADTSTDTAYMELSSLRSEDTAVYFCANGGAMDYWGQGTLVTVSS VL: DIQMTQSPSSLSASVGDRVTITCRASQDISNYLNWYQQKPGKAPKLLIYYTSRLHSGVPSRFSGSGSGTDFTFTISSLQPEDIATYYCQQDNTLPWTFGGGTKLEIK . Value?
[reply] 0.014

[ask] Endpoint output: EC50 of Hu14G12-12 (antibody, V domains shown, humanized) VH: EVQLVQSGAEVKKPGATVKISCKVSGYAFSSSWMNWVKQAPGKGLEWIGRIYREDGHTNYNGKFKGRATITADTSTTTAYMELSSLRSEDTAVYFCANGGAMDYWGQGTLVTVSS VL: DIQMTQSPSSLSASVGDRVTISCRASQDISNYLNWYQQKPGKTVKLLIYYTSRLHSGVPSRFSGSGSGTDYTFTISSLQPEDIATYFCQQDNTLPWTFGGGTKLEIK . Value?
[reply] 0.019

[ask] Endpoint output: EC50 of Hu14G12-45 (antibody, V domains shown, humanized) VH: QVQLVQSGAEVKKPGASVKVSCKASGYAFSSSWMNWVRQAPGQGLEWMGRIYREDGHTNYNGKFKGRVTMTADKSTTTAYMELRSLRSDDTAVYYCANGGAMDYWGQGTLVTVSS VL: EIVMTQSPATLSLSPGERATLSCRASQDISNYLNWYQQKPGQAPRLLIYYTSRLHSGIPARFSGSGSGTDYTLTISSLEPEDIAVYFCQQDNTLPWTFGGGTKVEIK . Value?
[reply] 0.0082

# credit: patent US20250154277A1
